Cited source for all entries: patent US11130803B2

# (C) hLTBP3, Matrix-associated proTGFb1 (KD) per entry
Molecular target: T1, recombinant human LTBP3-proTGFβ1 complex (Homo sapiens, UniProt P01137)
T1 construct: made in house; host or cells: Expi293F cells, transient co-transfection
T1 sequence (P01137 30-390): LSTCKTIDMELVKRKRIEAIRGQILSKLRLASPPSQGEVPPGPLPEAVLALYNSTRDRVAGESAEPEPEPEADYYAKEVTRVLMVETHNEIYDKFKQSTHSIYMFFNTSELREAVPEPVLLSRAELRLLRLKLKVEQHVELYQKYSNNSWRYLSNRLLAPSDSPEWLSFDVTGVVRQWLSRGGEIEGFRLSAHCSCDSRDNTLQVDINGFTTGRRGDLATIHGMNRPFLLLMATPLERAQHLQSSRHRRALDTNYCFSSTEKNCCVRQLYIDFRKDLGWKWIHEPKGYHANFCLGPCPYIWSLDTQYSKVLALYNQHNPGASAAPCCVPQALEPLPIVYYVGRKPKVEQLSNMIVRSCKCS
T1 sequence (Q9NS15 866-1039 partner limits assumed): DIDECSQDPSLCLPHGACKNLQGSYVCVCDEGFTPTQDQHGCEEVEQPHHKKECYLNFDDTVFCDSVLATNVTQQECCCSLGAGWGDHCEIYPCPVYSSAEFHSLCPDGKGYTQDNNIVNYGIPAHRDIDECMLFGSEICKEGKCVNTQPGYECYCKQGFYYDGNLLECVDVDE
Assay: Octet (Biolayer Interferometry) in vitro kinetic binding
Details: in M
Form: value (number only, do not type unit).

Previously resolved entries follow.
Ab15: monoclonal antibody; VH SEQ ID NO: 245, VL SEQ ID NO: 241 (antibody, V domains shown) VH: EVQLVESGGGVVQPGRSLRLSCAASGFTFSDYAMVWVRQAPGKGLEWVSAISGSGFTTYYADSVKGRFTISRDNSKNTLYLQMNSLRAEDTAVYYCARVSSGHWDFDYWGQGTLVTVSS VL: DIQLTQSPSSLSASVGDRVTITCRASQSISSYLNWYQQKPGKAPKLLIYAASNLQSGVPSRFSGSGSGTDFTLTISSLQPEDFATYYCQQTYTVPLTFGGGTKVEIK :: 1.68E−10
Ab28: monoclonal antibody; VH SEQ ID NO: 136, VL SEQ ID NO: 15 (antibody, V domains shown) VH: EVQLVESGGGLVQPGGSLRLSCAASGFTFSSFSMDWVRQAPGKGLEWVSYISPDASTIYYADSVKGRFTISRDNAKNSLYLQMNSLRAEDTAVYYCVRGVLDYGDMLDPWGQGTLVTVSS VL: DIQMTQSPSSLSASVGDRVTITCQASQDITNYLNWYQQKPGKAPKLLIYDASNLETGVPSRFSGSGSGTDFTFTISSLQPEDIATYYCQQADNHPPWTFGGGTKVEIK :: 3.16E−10
Ab17: monoclonal antibody; VH SEQ ID NO: 248, VL SEQ ID NO: 241 (antibody, V domains shown) VH: EVQLLESGGGVVQPGGSLRLSCAASGFTFSSFAMTWVRQAPGKGLEWVSAISGSGAATYFADSVKGRFTISRDNSKNTLYLQMNSLRAEDTAVYYCARVSSGHWDFDYWGQGTLVTVSS VL: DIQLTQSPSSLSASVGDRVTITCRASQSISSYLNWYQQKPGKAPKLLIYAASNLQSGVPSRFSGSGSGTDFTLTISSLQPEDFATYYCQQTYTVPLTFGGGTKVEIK :: 2.08E−10
Ab27: monoclonal antibody; VH SEQ ID NO: 135, VL SEQ ID NO: 15 (antibody, V domains shown) VH: EVQLVESGGGLVQPGGSLRLSCAASGFTFSFYAMNWVRQAPGKGLEWVSYISPDASTIYYADSVKGRFTISRDNAKNSLYLQMNSLRAEDTAVYYCARGVLDYGDMLDPWGQGTLVTVSS VL: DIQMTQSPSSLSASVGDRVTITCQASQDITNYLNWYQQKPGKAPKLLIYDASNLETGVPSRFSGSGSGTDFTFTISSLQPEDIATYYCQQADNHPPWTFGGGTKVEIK :: 2.38E−10
Ab26: monoclonal antibody; VH SEQ ID NO: 134, VL SEQ ID NO: 15 (antibody, V domains shown) VH: EVQLVESGGGLVQPGGSLRLSCAASGFTFSSFSMDWVRQAPGKGLEWVSYISPDASTIYYADSVKGRFTISRDNAKNTLYLQMNSLRAEDTAVYYCARGVLDYGDMLDPWGQGTLVTVSS VL: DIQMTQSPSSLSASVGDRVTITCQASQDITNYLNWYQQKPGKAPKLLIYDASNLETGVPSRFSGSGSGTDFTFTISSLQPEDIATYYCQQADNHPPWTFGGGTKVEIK :: 1.73E−10
Ab25: monoclonal antibody; VH SEQ ID NO: 133, VL SEQ ID NO: 15 (antibody, V domains shown) VH: EVQLVESGGGLVQPGGSLRLSCAASGFTFGSFSMDWVRQAPGKGLEWVSYISPDASTIYYADSVKGRFTISRDNAKNSLYLQMNSLRAEDTAVYYCARGVLDYGDMLDPWGQGTLVTVSS VL: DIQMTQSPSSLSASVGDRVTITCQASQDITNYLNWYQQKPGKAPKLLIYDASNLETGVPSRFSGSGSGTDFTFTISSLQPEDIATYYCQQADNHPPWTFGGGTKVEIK :: 1.52E−10
Ab32: monoclonal antibody; VH SEQ ID NO: 140, VL SEQ ID NO: 15 (antibody, V domains shown) VH: EVQLVESGGGLVQPGGSLRLSCAASGFTFSSFSMNWVRQAPGKGLEWVSYISPSADTIYYADSVKGRFTISRDNAKNTLYLQMNSLRAEDTAVYYCARGVWDMGDMLDPWGQGTLVTVSS VL: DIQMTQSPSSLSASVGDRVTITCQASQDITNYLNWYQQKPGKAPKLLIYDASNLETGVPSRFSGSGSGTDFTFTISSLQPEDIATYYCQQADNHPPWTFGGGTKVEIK :: 2.15E−10
Ab24: monoclonal antibody; VH SEQ ID NO: 132, VL SEQ ID NO: 15 (antibody, V domains shown) VH: EVQLVESGGGLVQPGRSLRLSCAASGFTFSSFAMYWVRQAPGKGLEWVSYISPDASTIYYADSVKGRFTISRDNAKNSLYLQMNSLRAEDTAVYYCARGVLDYGDMLDPWGQGTLVTVSS VL: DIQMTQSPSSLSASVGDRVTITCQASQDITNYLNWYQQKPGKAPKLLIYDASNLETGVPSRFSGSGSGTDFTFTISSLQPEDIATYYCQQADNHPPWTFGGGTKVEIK :: 1.98E−10

Turning to the following molecule.
Entry under test: Ab12: monoclonal antibody; VH SEQ ID NO: 237, VL SEQ ID NO: 241 (antibody, V domains shown) VH: QVQLVESGGGVVQPGRSLRLSCAASGFTFSDYAMVWVRQAPGKGLEWVSAISGSGFTTYYADSVKGRFTISRDNSKNTLYLQMNSLRAEDTAVYYCARVSSGHWDFDYWGQGTLVTVSS VL: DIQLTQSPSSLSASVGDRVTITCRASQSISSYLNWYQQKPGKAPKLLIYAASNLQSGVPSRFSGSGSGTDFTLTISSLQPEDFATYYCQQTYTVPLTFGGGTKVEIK . Its (C) hLTBP3, Matrix-associated proTGFb1 (KD) was 1.83E−10
